The values you see were collected from patent US20240360227A1.

tested.on: Recombinant human his-tagged IGF R extracellular domain protein (human) (UniProt P08069)
test.summary: SPR, Ab captured via anti-huIgG Fc, pH 7.4
measured.property: Kd
Give the number first and the unit second.

Would you kindly share the measured Kd for VRDN-02005 (antibody, V domains shown) VH: QVQLQESGPGLVKPSETLSLTCTVSGYSIHGGYLWNWIRQPPGKGLEWIGYISYDGTNNYKPSLKDRVTISRDTSKNQFSLKLSSVTAADTAVYYCARYGRVFFDYWGQGTLVTVSS VL: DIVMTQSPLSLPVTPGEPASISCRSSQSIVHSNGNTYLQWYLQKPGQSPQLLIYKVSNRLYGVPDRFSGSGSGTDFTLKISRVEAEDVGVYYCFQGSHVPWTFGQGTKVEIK ?
0.71 nM

Would you kindly share the measured Kd for VRDN-02076 (antibody, V domains shown) VH: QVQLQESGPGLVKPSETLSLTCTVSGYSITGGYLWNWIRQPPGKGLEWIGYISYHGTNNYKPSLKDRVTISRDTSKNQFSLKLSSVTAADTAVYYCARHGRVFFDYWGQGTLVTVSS VL: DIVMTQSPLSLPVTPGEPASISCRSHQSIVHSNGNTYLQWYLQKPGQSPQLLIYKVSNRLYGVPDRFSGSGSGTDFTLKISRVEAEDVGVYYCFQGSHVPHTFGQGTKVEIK ?
0.21 nM
